- system-name: Human immunodeficiency virus type 1 protease (Human immunodeficiency virus 1) (UniProt Q72874)
- protocol-details: Tested for its inhibition against HIV protease at a concentration of 0.5 nM.
endpoint: inhibition (%)
Give your result in % as a bare value.

Solved cases (3 shown):
| compound | value-units | measured-result |
| --- | --- | --- |
| O=C(N[C@@H](Cc1ccccc1)[C@@H](O)C[C@H](Cc1ccccc1)NC(=O)OC1COC2OCCC12)Oc1cncs1 (some centres undefined) | % | 52 |
| O=C(N[C@@H](Cc1ccccc1)C[C@H](O)[C@H](Cc1ccccc1)NC(=O)O[C@H]1COC2OCCC21)Oc1cncs1 (some centres undefined) | % | 53 |
| O=C(N[C@@H](Cc1ccccc1)C[C@H](O)[C@H](Cc1ccccc1)NC(=O)O[C@@H]1COC2OCCC21)O[C@H]1COC2OCCC21 (some centres undefined) | % | 73 |

Let us move to another entry and its inhibition.
Consider the compound CC(C)(C)OC(=O)N[C@@H](Cc1ccccc1)C[C@H](O)[C@H](Cc1ccccc1)NC(=O)O[C@@H]1COC2OCCC21 (some centres undefined) and give its measured inhibition.
45
